Target: MAGI2_4, Q86UL8
Sequence (Q86UL8 772-865): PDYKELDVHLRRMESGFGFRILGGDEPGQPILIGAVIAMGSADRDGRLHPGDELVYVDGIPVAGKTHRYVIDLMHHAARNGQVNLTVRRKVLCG
Assay: holdup assay
Design: key: below the threshold = too weak to quantify, mostly under pKd 3.1 to 4
Settings: plain residues with an end cap or a label only (N-terminal biotin on a linker: ado-ado)
PROPERTY_LABEL: pKd
Reply with the value as a number alone.

Examples from the recorded data:
PALKNGQYWV [CSPG4, Q6UVK1] ... 3.82
EPAKETTTNV [SLC2A3, P11169] ... 3.57

Query: For the binder IQISELETNV [SLC1A7, O00341] , report pKd.
Result: 3.56
